Molecular target: T1, IFN-αF (human, UniProt P01568 24-189)
T1 construct: Recombinant, HEK293; also called IFN-α21
T1 chain: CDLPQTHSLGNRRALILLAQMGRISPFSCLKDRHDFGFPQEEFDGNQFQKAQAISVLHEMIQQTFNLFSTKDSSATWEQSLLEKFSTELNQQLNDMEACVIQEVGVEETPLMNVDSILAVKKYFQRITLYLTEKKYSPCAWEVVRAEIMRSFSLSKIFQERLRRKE
Experiment: ProteOn SPR, cell supernatant;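 note: each binding measurement used just a single antigen concentration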
Quick reference: pKd of the listed items.
Keep in mind that pKd stands for -log10 of concentration in molar terms.

Some solved cases for reference:
binder: IFWM3379 (antibody, IgG1, V domains shown, mAb; IgG1/kappa said of the parent and of selected mAbs; also called IFWB3114) VH: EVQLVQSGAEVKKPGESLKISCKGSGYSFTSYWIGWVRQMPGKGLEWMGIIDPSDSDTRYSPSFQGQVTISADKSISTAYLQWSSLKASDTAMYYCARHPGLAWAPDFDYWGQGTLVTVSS VL: DIQMTQSPSSLSASVGDRVTITCRASQSIDGSLNWYQQKPGKAPKLLIYFASSLQSGVPSRFSGSGSGTDFTLTISSLQPEDFATYYCQQSYDFPLTFGQGTKVEIK
parameter-measured: pKd
assay-result: 10.89
//
binder: IFWM3398 (antibody, IgG1, V domains shown, mAb; IgG1/kappa said of the parent and of selected mAbs; also called IFWB3133) VH: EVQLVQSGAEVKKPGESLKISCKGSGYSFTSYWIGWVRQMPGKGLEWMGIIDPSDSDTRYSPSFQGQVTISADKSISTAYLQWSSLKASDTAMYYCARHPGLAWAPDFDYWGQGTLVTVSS VL: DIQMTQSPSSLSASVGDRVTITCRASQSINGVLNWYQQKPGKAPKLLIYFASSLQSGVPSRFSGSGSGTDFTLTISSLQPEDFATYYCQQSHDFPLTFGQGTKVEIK
parameter-measured: pKd
assay-result: 10.77

Query block: Supply reported pKd belonging to this binder: IFWM3413 (antibody, IgG1, V domains shown, mAb; IgG1/kappa said of the parent and of selected mAbs; also called IFWB3148) VH: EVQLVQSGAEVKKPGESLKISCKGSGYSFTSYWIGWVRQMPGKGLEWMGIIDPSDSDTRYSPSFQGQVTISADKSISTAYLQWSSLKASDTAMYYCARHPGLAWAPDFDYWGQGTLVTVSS VL: DIQMTQSPSSLSASVGDRVTITCRASQSINYLNWYQQKPGKAPKLLIYGASSLQSGVPSRFSGSGSGTDFTLTISSLQPEDFATYYCQQSHDWPITFGQGTKVEIK
Result block: 10.48

Query block: Look up pKd of IFWM3400 (antibody, IgG1, V domains shown, mAb; IgG1/kappa said of the parent and of selected mAbs; also called IFWB3135) VH: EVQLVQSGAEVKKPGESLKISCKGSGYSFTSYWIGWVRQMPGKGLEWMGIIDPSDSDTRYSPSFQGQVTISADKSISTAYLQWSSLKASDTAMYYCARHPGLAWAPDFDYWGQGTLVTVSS VL: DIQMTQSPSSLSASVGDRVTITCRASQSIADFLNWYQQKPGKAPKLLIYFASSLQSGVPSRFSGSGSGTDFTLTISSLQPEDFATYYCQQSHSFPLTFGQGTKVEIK and report it.
Result block: 10.66

Query block: Consider the binder IFWM3392 (antibody, IgG1, V domains shown, mAb; IgG1/kappa said of the parent and of selected mAbs; also called IFWB3127) VH: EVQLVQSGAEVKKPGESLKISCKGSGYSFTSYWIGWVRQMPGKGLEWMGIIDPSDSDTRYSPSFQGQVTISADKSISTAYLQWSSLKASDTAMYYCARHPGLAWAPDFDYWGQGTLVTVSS VL: DIQMTQSPSSLSASVGDRVTITCRASQSIDRALNWYQQKPGKAPKLLIYFASSLQSGVPSRFSGSGSGTDFTLTISSLQPEDFATYYCQQSFDFPLTFGQGTKVEIK . State its measured pKd.
Result block: 10.85

Query block: Find the measured pKd of IFWM3407 (antibody, IgG1, V domains shown, mAb; IgG1/kappa said of the parent and of selected mAbs; also called IFWB3142) VH: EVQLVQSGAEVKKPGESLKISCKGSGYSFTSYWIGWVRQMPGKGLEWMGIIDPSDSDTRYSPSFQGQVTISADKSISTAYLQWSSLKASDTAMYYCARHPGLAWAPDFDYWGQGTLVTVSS VL: DIQMTQSPSSLSASVGDRVTITCRASQSIRNNNLNWYQQKPGKAPKLLIHWASSLQSGVPSRFSGSGSGTDFTLTISSLQPEDFATYYCQQGYDTPFTFGQGTKVEIK and report it.
Result block: 10.48

Hello, the source for this data is patent US20150368338A1, in case you need it.
